- test.description: RPL19A-GFP modulators, yeast TOR pathway, confirmation, cell-based, S. cerevisiae, flow cytometry, cherry picks, mother/daughter gates (AID 2270)
- experimental.setup: S. cerevisiae RPL19A-GFP strain, 3 h, at 10 µM, hits give low values, 100 = same GFP as DMSO wells
Kindly state GFP response vs DMSO for each of the entries shown.
Numbers only, in %.

{"compound": "CNC(=O)c1c(O)c2cccc3c2n(c1=O)CC3", "GFP response vs DMSO, %": 102}
{"compound": "COc1ccc(CC2=CC(=O)c3ccccc3C2=O)cc1", "GFP response vs DMSO, %": 99.7}
{"compound": "COC(CNC(=O)c1ccc2c3c(onc13)-c1ccccc1C2=O)OC", "GFP response vs DMSO, %": 99.9}
{"compound": "Cc1cccc(N2C(=O)c3cccc4c(N(C)CCO)ccc(c34)C2=O)c1", "GFP response vs DMSO, %": 98.8}
{"compound": "CCCCCn1c(=O)c(C(=O)OCC)c(O)c2ccccc21", "GFP response vs DMSO, %": 97.6}
{"compound": "Nc1cccnc1S(=O)(=O)c1cccc(C(F)(F)F)c1", "GFP response vs DMSO, %": 97.6}
{"compound": "Cc1cc(NCCCN2CCOCC2)n2ncc(-c3ccccc3)c2n1", "GFP response vs DMSO, %": 99.3}
{"compound": "COc1ccc(C2CC(c3c(-c4ccccc4)c4cc(Cl)ccc4[nH]c3=O)=NN2S(C)(=O)=O)cc1 (stereo unspecified)", "GFP response vs DMSO, %": 100}

Give GFP response vs DMSO for each of the items listed below.
1. Cc1ccn2c(NC3CCCCC3)c(C)nc2c1
2. COc1ccc(/C=C/C(=O)C2C(=O)C=C(C)OC2=O)cc1O (stereo unspecified)
3. COC(=O)Cc1ccc(OCc2ccc(Cl)nc2)cc1

# output
1. 99.4
2. 101
3. 97.8

----------
- test.description: inhibitors of CD8+ T cell-vesicle binding, pilot screen, LFA-1/ICAM-1 modulator project, MLPCN validation set, flow cytometry (AID 2523);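 also: mean PE anti-B7-1 fluorescence of CD8+ cells relative to row control; 100% = QL9-loaded vesicles with DMSO vehicle in the same plate row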
- experimental.setup: 2C mouse CD8+ T cells, at 7 µM, hits give low values
Kindly state vesicle binding response for each of the entries shown.
One number for each entry, in %.

{"molecule": "NC12CC3CC(CC(C3)C1)C2", "experimental.result": 195}
{"molecule": "O=C(c1cc2cc(Br)ccc2o1)N1CCCCC1", "experimental.result": 320}
{"molecule": "O=P(O)(O)CP(=O)(O)O", "experimental.result": 178}

Give vesicle binding response for each of the items listed below.
1. CC(=O)O[C@H]1CC[C@H]2[C@@H]3CCc4cc(O)ccc4[C@H]3CC[C@]12C
2. COc1cccc(OCc2cc(C3Nc4ccccc4C(=O)N3Cc3ccco3)ccc2OC)c1 (stereo not given)
3. COC(=O)c1ccc(=O)n(Cc2ccco2)c1
4. COc1ccc(C2C3C(C)=NN=C3CC(C)(O)C2C(C)=O)cc1 (stereo not given)

# output
[234, 127, 166, 265]

----------
Kindly state GFP response relative to DMSO for each of the entries shown.
- test.description: LAP4-GFP expression modulators in yeast, confirmation, cell-based, cherry picks, flow cytometry, mother/daughter gates (AID 2271);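 also: ratio of sample to DMSO plate mean so 100% equals DMSO level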
- experimental.setup: S. cerevisiae LAP4-GFP strain, 3 h, at 10 µM, hits give high values, 100 means same as DMSO control
Answers are plain numbers, in %.

{"compound": "COc1ccccc1-c1nnc(NC(=O)c2ccc(S(=O)(=O)N(C)C)cc2)o1", "GFP response relative to DMSO, %": 111}
{"compound": "Cc1ccc(/C=N\\NC(=O)c2cc(OCC(F)(F)F)ccc2OCC(F)(F)F)cc1", "GFP response relative to DMSO, %": 91.5}
{"compound": "O=C(N/N=C/c1ccc(OCCCF)cc1)c1cc(OCC(F)(F)F)ccc1OCC(F)(F)F", "GFP response relative to DMSO, %": 97.4}

Give GFP response relative to DMSO for each of the items listed below.
1. O=C(CCC(F)(F)F)N1CCC(CO)(CCc2ccccc2)CC1
2. Cc1nnc(NC(=O)c2csc3c2CCC(C)C3)s1 (stereo not drawn)
3. Cc1[nH]n(-c2ncc(-c3ccccc3)s2)c(=O)c1C(c1ccc(Cl)cc1)C(C#N)C#N (stereo not drawn)
4. O=C(c1ccccn1)c1conc1C(=O)c1ccc(Br)cc1
5. COc1ccccc1N1CCN(C2CCCN(Cc3cc(F)cc(F)c3)C2)CC1 (stereo not drawn)
6. O=c1oc2cc(Oc3c([N+](=O)[O-])cc(C(F)(F)F)cc3[N+](=O)[O-])ccc2c2c1CCCC2
7. C=CCn1cc(/C=C/c2cc[n+](C)cc2)c2ccccc21

# output
1: 91.4; 2: 117; 3: 156; 4: 204; 5: 98.9; 6: 246; 7: 108

Give GFP response relative to DMSO for each of the items listed below.
1. CCCc1[nH]nc2c1C(c1ccc(OCCN3CCOCC3)c(OCC)c1)C(C#N)=C(N)O2 (stereo not drawn)
2. COc1ccc(NC2=C(Cl)C(=O)N(CCc3ccccc3)C2=O)cc1
3. Cc1ccc(C(=O)Sc2cccccc2=O)cc1
4. COc1cc(OC)cc(C(=O)N2CCN(c3ccccc3F)CC2)c1
5. Cc1ccc(S(=O)(=O)c2ncccc2N)cc1
6. O=S(=O)(c1ccccc1)c1ccc(C(F)(F)F)cn1
7. CNC(=O)c1c(O)c2cccc3c2n(c1=O)CC3
8. CS(=O)(=O)Nc1ccc(C2=NN(S(C)(=O)=O)C(c3ccccc3)C2)cc1 (stereo not drawn)

# output
[90.2, 97.7, 313, 97.4, 101, 96.1, 94.2, 133]

Give GFP response relative to DMSO for each of the items listed below.
1. COc1ccc(CCNC2=C(Cl)C(=O)N(CCc3ccccc3)C2=O)cc1OC
2. O=C(O)c1cccc(S(=O)(=O)N2Cc3ccccc3C2)c1
3. Cc1nc2c(-c3ccc(F)cc3)cnn2c(N)c1-c1ccccc1
4. O=C(/C=C/c1ccccc1)c1ccccc1O

# output
103
106
101
130

GFP response relative to DMSO measured on Cc1ccc(SC(=O)c2c(C)noc2-c2cc(C)on2)cc1 = 120
